# Tested on: Crude diglycosidase
# Assay: Examination of substrate concentration in the conversion into isoflavone aglycons by diglycosidase using soybean materials;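 also: percent of the isoflavone family total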
# Format: biochemical, Penicillium multicolor IAM7153
# Experimental Parameters: soymilk, substrate concentration 2%, heat treatment of enzyme no, reaction time 1 h
Attribute Measured: Decomposition efficiency: ratio of each glycoside/aglycon within its isoflavone family

Record "O=C(O)CC(=O)OC[C@H]1O[C@@H](Oc2cc(O)c3c(=O)c(-c4ccc(O)cc4)coc3c2)[C@H](O)[C@@H](O)[C@@H]1O" . Reported Decomposition efficiency: ratio of each glycoside/aglycon within its isoflavone family: 15.3%

Record "COc1cc2c(=O)c(-c3ccc(O)cc3)coc2cc1O[C@@H]1O[C@H](COC(C)=O)[C@@H](O)[C@H](O)[C@H]1O" . Reported Decomposition efficiency: ratio of each glycoside/aglycon within its isoflavone family: not detected

Record "COc1cc2c(=O)c(-c3ccc(O)cc3)coc2cc1O[C@@H]1O[C@H](COC(=O)CC(=O)O)[C@@H](O)[C@H](O)[C@H]1O" . Reported Decomposition efficiency: ratio of each glycoside/aglycon within its isoflavone family: not detected

###

# Test system: Crude diglycosidase
# Assay: Examination of substrate concentration in the conversion into isoflavone aglycons by diglycosidase using soybean materials;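 also: percent of the isoflavone family total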
# Type: biochemical, Penicillium multicolor IAM7153
# Experimental Parameters: soymilk, substrate concentration 20%, heat treatment of enzyme no, reaction time 3 h
Attribute Measured: Decomposition efficiency: ratio of each glycoside/aglycon within its isoflavone family (%)

Record "O=C(O)CC(=O)OC[C@H]1O[C@@H](Oc2ccc3c(=O)c(-c4ccc(O)cc4)coc3c2)[C@H](O)[C@@H](O)[C@@H]1O" . Reported Decomposition efficiency: ratio of each glycoside/aglycon within its isoflavone family: 21.5

a: O=C(O)CC(=O)OC[C@H]1O[C@@H](Oc2cc(O)c3c(=O)c(-c4ccc(O)cc4)coc3c2)[C@H](O)[C@@H](O)[C@@H]1O
b: COc1cc2c(=O)c(-c3ccc(O)cc3)coc2cc1O
c: COc1cc2c(=O)c(-c3ccc(O)cc3)coc2cc1O[C@@H]1O[C@H](COC(=O)CC(=O)O)[C@@H](O)[C@H](O)[C@H]1O
Task: List these items ordered by Decomposition efficiency: ratio of each glycoside/aglycon within its isoflavone family, big to small. Write the labels out in the order the request specifies.
Output: b, a, c
(b: 90.6%, a: 15.7%, c: 9.4%)

###

# Tested on: Crude diglycosidase
# Assay: Examination of pH in the conversion into isoflavone aglycons by diglycosidase using soybean materials
# Format: biochemical, Penicillium multicolor IAM7153
# Set-up: concentration or dose not given beside the values
# Experimental Parameters: pH4.8; heat treatment of enzyme: no; reaction time 0 h
Attribute Measured: Decomposition efficiency of genistin family in defatted soybean (%)

Record "O=C(O)CC(=O)OC[C@H]1O[C@@H](Oc2cc(O)c3c(=O)c(-c4ccc(O)cc4)coc3c2)[C@H](O)[C@@H](O)[C@@H]1O" . Reported Decomposition efficiency of genistin family in defatted soybean: 43.2

P: O=c1c(-c2ccc(O)cc2)coc2cc(O)cc(O)c12
Q: CC(=O)OC[C@H]1O[C@@H](Oc2cc(O)c3c(=O)c(-c4ccc(O)cc4)coc3c2)[C@H](O)[C@@H](O)[C@@H]1O
R: O=c1c(-c2ccc(O)cc2)coc2cc(O[C@@H]3O[C@H](CO)[C@@H](O)[C@H](O)[C@H]3O)cc(O)c12
Task: List these items ordered by Decomposition efficiency of genistin family in defatted soybean, big to small. Write the labels out in the order the request specifies.
Output: R, P, Q
(R: 40.5%, P: 14.5%, Q: 1.8%)

###

# System: Diglycosidase derived from A. fumigatus
# Assay: Reactivity toward various isoflavone glycosides (HPLC)
# Type: biochemical, Aspergillus fumigatus
# Set-up: unit not given here
# Experimental Parameters: Reaction time 6 h; 55 °C, pH 4.0
# Protocol: Diglycosidase was diluted with an acetate buffer of pH 4.0 to prepare a 0.75 AU/mL enzyme solution. […] The reaction was carried out at 55° C. and isolation of an aglycon isoflavone from an isoflavone glycoside in the reaction mixture was detected by HLPC at 0, 1, 3, and 6 hours of the reaction. […]
Attribute Measured: aglycon

Record CC(=O)OC[C@H]1O[C@@H](Oc2cc(O)c3c(=O)c(-c4ccc(O)cc4)coc3c2)[C@H](O)[C@@H](O)[C@@H]1O [acetylgenistin, 6″-O-acetylgenistin] . Reported aglycon: 35.2

Record O=c1c(-c2ccc(O)cc2)coc2cc(O[C@@H]3O[C@H](CO)[C@@H](O)[C@H](O)[C@H]3O)cc(O)c12 [genistin] . Reported aglycon: 0

Record COc1cc2c(=O)c(-c3ccc(O)cc3)coc2cc1O[C@@H]1O[C@H](CO)[C@@H](O)[C@H](O)[C@H]1O [glycitin] . Reported aglycon: 0

Record COc1cc2c(=O)c(-c3ccc(O)cc3)coc2cc1O[C@@H]1O[C@H](COC(C)=O)[C@@H](O)[C@H](O)[C@H]1O [acetylglycitin, 6″-O-acetylglycitin] . Reported aglycon: 22.7

Record CC(=O)OC[C@H]1O[C@@H](Oc2ccc3c(=O)c(-c4ccc(O)cc4)coc3c2)[C@H](O)[C@@H](O)[C@@H]1O [acetyldaidzin, 6″-O-acetyldaidzin] . Reported aglycon: 66.5

a: O=C(O)CC(=O)OC[C@H]1O[C@@H](Oc2ccc3c(=O)c(-c4ccc(O)cc4)coc3c2)[C@H](O)[C@@H](O)[C@@H]1O [malonyldaidzin, 6″-O-malonyldaidzin]
b: COc1cc2c(=O)c(-c3ccc(O)cc3)coc2cc1O[C@@H]1O[C@H](COC(=O)CC(=O)O)[C@@H](O)[C@H](O)[C@H]1O [malonylglycitin, 6″-O-malonylglycitin]
Task: Compare the recorded aglycon of a and b ; state which is larger. Provide the label of your selected option as the answer.
Output: a

###

# Test system: Crude diglycosidase
# Assay: Examination of temperature in the conversion into isoflavone aglycons by diglycosidase using soybean materials
# Assay type: biochemical, Penicillium multicolor IAM7153
# Experimental Parameters: 45 °C; heat treatment of enzyme: yes; 6 h
Attribute Measured: Decomposition efficiency of glycitin family in concentrated soybean protein (%)

Record COc1cc2c(=O)c(-c3ccc(O)cc3)coc2cc1O[C@@H]1O[C@H](COC(=O)CC(=O)O)[C@@H](O)[C@H](O)[C@H]1O [malonylglycitin, 6″-O-malonylglycitin] . Reported Decomposition efficiency of glycitin family in concentrated soybean protein: 0.5

1: COc1cc2c(=O)c(-c3ccc(O)cc3)coc2cc1O [glycitein]
2: COc1cc2c(=O)c(-c3ccc(O)cc3)coc2cc1O[C@@H]1O[C@H](COC(C)=O)[C@@H](O)[C@H](O)[C@H]1O [acetylglycitin, 6″-O-acetylglycitin]
Task: Compare the recorded Decomposition efficiency of glycitin family in concentrated soybean protein of 1 and 2 ; state which is larger. Provide the label of your selected option as the answer.
Output: 2

###

# Tested on: Crude diglycosidase
# Assay: Examination of temperature in the conversion into isoflavone aglycons by diglycosidase using soybean materials
# Type: biochemical, Penicillium multicolor IAM7153
# Design: concentration or dose not given beside the values
# Experimental Parameters: 65 °C; heat treatment of enzyme: no; 1 h
Attribute Measured: Decomposition efficiency of daidzin family in soymilk (%)

Record "O=c1c(-c2ccc(O)cc2)coc2cc(O)ccc12" . Reported Decomposition efficiency of daidzin family in soymilk: 48.3

Record "O=C(O)CC(=O)OC[C@H]1O[C@@H](Oc2ccc3c(=O)c(-c4ccc(O)cc4)coc3c2)[C@H](O)[C@@H](O)[C@@H]1O" . Reported Decomposition efficiency of daidzin family in soymilk: 51.7

###

# Test system: Crude diglycosidase
# Assay: Examination of temperature in the conversion into isoflavone aglycons by diglycosidase using soybean materials
# Type: biochemical, Penicillium multicolor IAM7153
# Experimental Parameters: 55 °C; heat treatment of enzyme: no; 0 h
Attribute Measured: Decomposition efficiency of glycitin family in soymilk (%)

Record "COc1cc2c(=O)c(-c3ccc(O)cc3)coc2cc1O[C@@H]1O[C@H](COC(=O)CC(=O)O)[C@@H](O)[C@H](O)[C@H]1O" . Reported Decomposition efficiency of glycitin family in soymilk: 44.6

a: COc1cc2c(=O)c(-c3ccc(O)cc3)coc2cc1O[C@@H]1O[C@H](CO)[C@@H](O)[C@H](O)[C@H]1O
b: COc1cc2c(=O)c(-c3ccc(O)cc3)coc2cc1O
Task: Of a and b , which carries the smaller reported Decomposition efficiency of glycitin family in soymilk figure? Provide the label of your selected option as the answer.
Output: b

###

# Tested on: Crude diglycosidase
# Assay: Examination of pH in the conversion into isoflavone aglycons by diglycosidase using soybean materials
# Format: biochemical, Penicillium multicolor IAM7153
# Experimental Parameters: pH7.8; heat treatment of enzyme: no; reaction time 1 h
Attribute Measured: Decomposition efficiency of glycitin family in defatted soybean (%)

Record COc1cc2c(=O)c(-c3ccc(O)cc3)coc2cc1O [glycitein] . Reported Decomposition efficiency of glycitin family in defatted soybean: 42.5

Record COc1cc2c(=O)c(-c3ccc(O)cc3)coc2cc1O[C@@H]1O[C@H](COC(=O)CC(=O)O)[C@@H](O)[C@H](O)[C@H]1O [malonylglycitin, 6″-O-malonylglycitin] . Reported Decomposition efficiency of glycitin family in defatted soybean: 57.5

The values you see were collected from patent US7118895B2.
